# SYSTEM_UNDER_TEST: thrombin (Homo sapiens, UniProt P00734)
# PROCEDURE_DETAILS: Chromogenic kinetic enzyme assay of thrombin
# Format: biochemical
# SETUP_CONDITIONS: Table 6.2; headed Fluorogenic Assay; read-out: Thrombin Ki
Starred links: 1 amine or outer side, 2 acyl side, 3 side chain; linkers in the order of their positions; H or OH if unused. Non-standard residues stand in square brackets, D forms with d. Residues, ends and D or L forms follow the SMILES beside them. X1 = N=C(N)NCCC[C@H](N[*:1])C(=O)c1nc2ccc(C(=O)[*:2])cc2s1
QUANTITY_MEASURED: pKi
Lab note — pKi values are minus log10 of concentrations in M.

COMPOUND	OBS_VALUE
CC(C)C[C@H](NC(=O)[C@@H](N)CCCNC(=N)N)C(=O)N[C@@H](CCCNC(=N)N)C(=O)c1nc2ccccc2s1 [Compound 7171, H-RLR-kbt]	5.09

Below: the item to evaluate.
Query: pKi; subject: CC(=O)N[C@@H](CO)C(=O)N[C@@H](CCCCN)C(=O)N[C@@H](CC(C)C)C(=O)N[C@@H](CCCNC(=N)N)C(=O)c1nc2ccc(C(=O)N[C@@H](Cc3c[nH]c4ccccc34)C(N)=O)cc2s1 [Compound 7124, Ac-SKLR(SEQ ID NO: 10)-Kbt-Trp— NH2] (Ac-SKL[X1]W-NH2)
5.91

----------
# SYSTEM_UNDER_TEST: HGFA (Homo sapiens, UniProt Q04756)
# Construct: His6 tag (N); seven amino acid spacer and seven amino acid TEV cleavage site (N); Honey Bee melittin signal peptide (N); made in house; host or cells: High 5 insect cells (baculovirus; virus raised in Sf9)
# Sequence (Q04756 373-655): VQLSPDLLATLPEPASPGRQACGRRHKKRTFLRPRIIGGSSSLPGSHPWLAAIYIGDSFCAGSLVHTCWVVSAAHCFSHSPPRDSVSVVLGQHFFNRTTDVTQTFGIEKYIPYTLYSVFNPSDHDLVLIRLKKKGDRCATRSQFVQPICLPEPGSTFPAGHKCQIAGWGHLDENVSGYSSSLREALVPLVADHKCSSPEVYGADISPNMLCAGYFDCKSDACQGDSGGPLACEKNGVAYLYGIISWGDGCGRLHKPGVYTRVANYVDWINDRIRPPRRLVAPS
# PROCEDURE_DETAILS: Fluorescent kinetic enzyme inhibitor assay of HGFA
# Type: biochemical
# SETUP_CONDITIONS: Table 6.1; Fluorogenic Assay; read-out: HGFA Ki
pKi: −log10 of the molar value. Starred links: 1 amine or outer side, 2 acyl side, 3 side chain; linkers in the order of their positions; H or OH if unused. Non-standard residues stand in square brackets, D forms with d. Residues, ends and D or L forms follow the SMILES beside them. X1 = N=C(N)NCCC[C@H](N[*:1])C(=O)c1nc2ccc(C(=O)[*:2])cc2s1
QUANTITY_MEASURED: pKi

MOLECULE	OBS_VALUE
CC(=O)N[C@@H](CCCCN)C(=O)N[C@@H](CCCNC(=N)N)C(=O)N[C@@H](CC(C)C)C(=O)N[C@@H](CCCNC(=N)N)C(=O)c1nc2ccc(C(=O)N[C@H](C(N)=O)C(C)C)cc2s1 [Compound 7115, Ac-KRLR(SEQ ID NO: 8)-Kbt-Val—NH2] (Ac-KRL[X1]V-NH2)	8.23

A: CC(=O)N[C@@H](Cc1c[nH]c2ccccc12)C(=O)N[C@@H](CC(C)C)C(=O)N[C@@H](Cc1ccccc1)C(=O)N[C@@H](CCCNC(=N)N)C(=O)c1nc2ccccc2s1 [Compound 7064, Ac-WLFR(SEQ ID NO: 20)-Kbt]
B: N=C(N)NCCC[C@H](NC(=O)[C@H](Cc1ccccc1)NC(=O)[C@@H](N)Cc1c[nH]c2ccccc12)C(=O)c1nc2ccccc2s1
C: COC(=O)c1cccc(CNC(=O)c2ccc3nc(C(=O)[C@H](CCCNC(=N)N)NC(=O)[C@H](CC(C)C)NC(=O)[C@H](CCCNC(=N)N)NC(=O)[C@H](CCCCN)NC(C)=O)sc3c2)c1 [Compound 7159, Ac-KRLR(SEQ ID NO: 8)-kbt-Benzyl-3-COOMe]
D: N=C(N)NCCC[C@H](NC(=O)[C@H](Cc1ccccc1)NC(=O)[C@H](N)Cc1c[nH]c2ccccc12)C(=O)c1nc2ccccc2s1
Give the ascending ranking of the items by reported pKi. Reply with the labels, ordered as the question asks.
B, D, A, C
(B: 5.25, D: 5.65, A: 6.88, C: 8.11)

----------
Endpoint: IC50. System: UniProtKB P05981. Items follow.
Sequence (P05981 163-417 limits assumed): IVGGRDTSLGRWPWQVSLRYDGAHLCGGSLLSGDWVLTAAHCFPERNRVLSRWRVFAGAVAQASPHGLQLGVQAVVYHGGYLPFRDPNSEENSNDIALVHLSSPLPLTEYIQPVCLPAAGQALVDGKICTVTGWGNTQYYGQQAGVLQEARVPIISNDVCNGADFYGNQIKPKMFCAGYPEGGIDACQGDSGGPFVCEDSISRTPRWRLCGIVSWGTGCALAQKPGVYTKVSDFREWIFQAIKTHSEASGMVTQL
Sequence (P05981 45-162 partner limits assumed): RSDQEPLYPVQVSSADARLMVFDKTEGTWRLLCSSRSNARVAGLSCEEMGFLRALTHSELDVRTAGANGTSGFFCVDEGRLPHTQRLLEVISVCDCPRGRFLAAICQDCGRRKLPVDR
QUANTITY_MEASURED: IC50 (nM)

Recorded IC50, per entry:
COMPOUND	SYSTEM_UNDER_TEST	IC50, nM
N=C(N)c1ccc2cc(OC(=O)c3ccc(N=C(N)N)cc3)ccc2c1 [Nafamostat, reference compound]	UniProtKB P05981	2
CC(=O)N[C@@H](CCCCN)C(=O)N[C@@H](CCC(N)=O)C(=O)N[C@@H](CC(C)C)C(=O)N[C@@H](CCCNC(=N)N)C(=O)c1nccs1 [Compound 5, Ac-KQLR(SEQ ID NO: 1)-kt]	UniProtKB P05981	2
CC(=O)N[C@@H](CC(C)C)C(=O)N[C@@H](CC(C)C)C(=O)N[C@H](C=O)CCCNC(=N)N [Leupeptin, reference compound]	UniProtKB P05981	256

a: CC(=O)N[C@@H](CCCNC(=N)N)C(=O)N[C@@H](CCC(N)=O)C(=O)N[C@@H](CC(C)C)C(=O)N[C@@H](CCCNC(=N)N)C(=O)c1nccs1 [Compound 5e, Ac-RQLR(SEQ ID NO: 6)-kt]
b: CC(=O)N[C@@H](CO)C(=O)N[C@@H](Cc1c[nH]c2ccccc12)C(=O)N[C@@H](CC(C)C)C(=O)N[C@@H](CCCNC(=N)N)C(=O)c1nccs1 [Compound 6g, Ac-SWLR(SEQ ID NO: 17)-kt]
Quick check, higher IC50 between a and b ? Answer format: the label of the selected item.
b

----------
# SYSTEM_UNDER_TEST: thrombin (Homo sapiens, UniProt P00734)
# PROCEDURE_DETAILS: Chromogenic kinetic enzyme assay of thrombin
# Format: biochemical
# SETUP_CONDITIONS: Table 6.2; headed Fluorogenic Assay; read-out: Thrombin Ki
pKi: −log10 of the molar value.
QUANTITY_MEASURED: pKi

P: CC(=O)N[C@@H](CO)C(=O)N[C@@H](CCCCN)C(=O)N[C@@H](CC(C)C)C(=O)N[C@@H](CCCNC(=N)N)C(=O)c1nc2ccc(C(=O)NCc3ccccc3)cc2s1 [Compound 7139, Ac-SKLR(SEQ ID NO: 10)-Kbt- benzylamide]
Q: CC(C)C[C@H](NC(=O)OCC1c2ccccc2-c2ccccc21)C(=O)N[C@@H](CCCNC(=N)N)C(=O)c1nc2ccccc2s1
I would appreciate it if you could say which entry, P or Q , has the lower pKi value. Identify your pick by its label.
P
(P: 5.61, Q: 6.00)

----------
# SYSTEM_UNDER_TEST: HGFA (Homo sapiens)
# Construct: His6 tag (N); seven amino acid spacer and seven amino acid TEV cleavage site (N); Honey Bee melittin signal peptide (N); made in house; host or cells: High 5 insect cells (baculovirus; virus raised in Sf9)
# PROCEDURE_DETAILS: Fluorescent kinetic enzyme inhibitor assay of HGFA
# Type: biochemical
# SETUP_CONDITIONS: Table 4.2; Boc-QLR-AMC substrate; read-out: HGFA Ki
QUANTITY_MEASURED: Ki (nM)

MOLECULE	QUANTITY_MEASURED	OBS_VALUE
CC(=O)N[C@@H](Cc1c[nH]c2ccccc12)C(=O)N[C@@H](CCC(N)=O)C(=O)N[C@@H](CC(C)C)C(=O)N[C@@H](CCCNC(=N)N)C(=O)c1nccs1 [Compound 5b, Ac-WQLR(SEQ ID NO: 3)-kt]	Ki	65
CC(=O)N[C@@H](Cc1c[nH]c2ccccc12)C(=O)N[C@@H](CCCCN)C(=O)N[C@@H](CC(C)C)C(=O)N[C@@H](CCCNC(=N)N)C(=O)c1nccs1 [Compound 6b, Ac-WKLR(SEQ ID NO: 12)-kt]	Ki	56

P: CC(=O)N[C@@H](CCCCN)C(=O)N[C@@H](CCC(N)=O)C(=O)N[C@@H](Cc1ccccc1)C(=O)N[C@@H](CCCNC(=N)N)C(=O)c1nccs1 [Compound 5c, Ac-KQFR(SEQ ID NO: 4)-kt]
Q: CC(=O)N[C@@H](CO)C(=O)N[C@@H](Cc1c[nH]cn1)C(=O)N[C@@H](CC(C)C)C(=O)N[C@@H](CCCNC(=N)N)C(=O)c1nccs1 [Compound 6a, Ac-SHLR(SEQ ID NO: 11)-kt]
R: CC(=O)N[C@H](C(=O)N[C@@H](CCCCN)C(=O)N[C@@H](CC(C)C)C(=O)N[C@@H](CCCNC(=N)N)C(=O)c1nccs1)[C@@H](C)O [Compound 6f, Ac-TKLR(SEQ ID NO: 16)-kt]
Arrange these 3 molecules in increasing order of Ki. Response field: labels, in requested order.
P, R, Q

----------
# SYSTEM_UNDER_TEST: Factor Xa (Homo sapiens)
# Sequence (P00742 235-488 limits assumed): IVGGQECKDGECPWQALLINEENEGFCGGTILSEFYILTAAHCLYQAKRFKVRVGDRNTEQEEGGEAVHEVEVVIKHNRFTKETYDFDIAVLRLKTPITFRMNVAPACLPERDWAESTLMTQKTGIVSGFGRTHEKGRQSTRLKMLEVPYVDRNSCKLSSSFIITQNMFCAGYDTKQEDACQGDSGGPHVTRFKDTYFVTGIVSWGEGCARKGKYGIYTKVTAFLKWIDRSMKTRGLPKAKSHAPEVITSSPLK
# Sequence (P00742 41-179 partner limits assumed): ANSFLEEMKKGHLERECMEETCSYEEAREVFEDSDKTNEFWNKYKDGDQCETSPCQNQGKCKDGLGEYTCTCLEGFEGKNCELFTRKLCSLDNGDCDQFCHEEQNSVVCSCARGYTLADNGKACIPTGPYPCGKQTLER
# PROCEDURE_DETAILS: Chromogenic kinetic enzyme assay of Factor Xa
# Type: biochemical
# SETUP_CONDITIONS: Table 6.2; headed Fluorogenic Assay; read-out: Factor Xa Ki
Starred links: 1 amine or outer side, 2 acyl side, 3 side chain; linkers in the order of their positions; H or OH if unused. Non-standard residues stand in square brackets, D forms with d. Residues, ends and D or L forms follow the SMILES beside them. X1 = N=C(N)NCCC[C@H](N[*:1])C(=O)c1nc2ccc(C(=O)[*:2])cc2s1
QUANTITY_MEASURED: Ki (nM)

Some solved entries appear below for comparison.
MOLECULE	MEASURE_UNIT	Ki
CC(=O)N[C@@H](CO)C(=O)N[C@@H](CCCCN)C(=O)N[C@@H](CC(C)C)C(=O)N[C@@H](CCCNC(=N)N)C(=O)c1nc2ccc(C(=O)Nc3ccncc3)cc2s1 [Compound 7126]	nM	221
CC(C)C[C@H](NC(=O)[C@@H](N)CC(C)C)C(=O)N[C@@H](CCCNC(=N)N)C(=O)c1nc2ccc(C(=O)N[C@H](C(N)=O)C(C)C)cc2s1 [Compound 7182, H-LLR-kbt V amide]	nM	159
CC(=O)N[C@@H](CO)C(=O)N[C@@H](CCCCN)C(=O)N[C@@H](CC(C)C)C(=O)N[C@@H](CCCNC(=N)N)C(=O)c1nc2ccc(C(=O)N[C@@H](Cc3ccccc3)C(N)=O)cc2s1 [Compound 7125, Ac-SKLR(SEQ ID NO: 10)-Kbt-Phe— NH2] (Ac-SKL[X1]F-NH2)	nM	544
CC(C)C[C@H](NC(=O)[C@@H](N)Cc1c[nH]c2ccccc12)C(=O)N[C@@H](CCCNC(=N)N)C(=O)c1nc2ccccc2s1 [Compound 7170, H-WLR-kbt]	nM	532
CC(=O)N[C@@H](Cc1c[nH]c2ccccc12)C(=O)N[C@@H](CC(C)C)C(=O)N[C@@H](Cc1ccccc1)C(=O)N[C@@H](CCCNC(=N)N)C(=O)c1nc2ccccc2s1 [Compound 7064, Ac-WLFR(SEQ ID NO: 20)-Kbt]	nM	1
CC(C)C[C@H](NC(=O)[C@@H](N)Cc1c[nH]c2ccccc12)C(=O)N[C@@H](CCCNC(=N)N)C(=O)c1nc2ccc(C(=O)N[C@H](C(N)=O)C(C)C)cc2s1 [Compound 7181, H-WLR-kbt V amide]	nM	159
COC(=O)c1cccc(CNC(=O)c2ccc3nc(C(=O)[C@H](CCCNC(=N)N)NC(=O)[C@H](CC(C)C)NC(=O)[C@H](CCCNC(=N)N)NC(=O)[C@H](CCCCN)NC(C)=O)sc3c2)c1 [Compound 7159, Ac-KRLR(SEQ ID NO: 8)-kbt-Benzyl-3-COOMe]	nM	14
CC(C)C[C@H](NC(=O)OCC1c2ccccc2-c2ccccc21)C(=O)N[C@@H](CCCNC(=N)N)C(=O)c1nc2ccccc2s1 [Compound 7185-11, Fmoc-LR-kbt]	nM	410
CC(=O)N[C@@H](CCCCN)C(=O)N[C@@H](CCC(N)=O)C(=O)N[C@@H](CC(C)C)C(=O)N[C@@H](CCCNC(=N)N)C(=O)c1nc2ccc(C(=O)N[C@H](C(N)=O)C(C)C)cc2s1 [Compound 7055, Ac-KQLR(SEQ ID NO: 1)-Kbt-Val—NH2] (Ac-KQL[X1]V-NH2)	nM	66
CC(=O)N[C@@H](CO)C(=O)N[C@@H](CCCCN)C(=O)N[C@@H](CC(C)C)C(=O)N[C@@H](CCCNC(=N)N)C(=O)c1nc2ccc(C(=O)N[C@@H](Cc3c[nH]c4ccccc34)C(N)=O)cc2s1 [Compound 7124, Ac-SKLR(SEQ ID NO: 10)-Kbt-Trp— NH2] (Ac-SKL[X1]W-NH2)	nM	163

1: CC(C)C[C@H](NC(=O)[C@@H](N)CCCNC(=N)N)C(=O)N[C@@H](CCCNC(=N)N)C(=O)c1nc2ccccc2s1 [Compound 7171, H-RLR-kbt]
2: CC(=O)N[C@@H](CCCCN)C(=O)N[C@@H](CCCNC(=N)N)C(=O)N[C@@H](CC(C)C)C(=O)N[C@@H](CCCNC(=N)N)C(=O)c1nc2ccc(C(=O)NCc3cccc(C(=O)O)c3)cc2s1 [Compound 7165, Ac-KRLR(SEQ ID NO: 8)-Kbt-5-COOH]
Sort 1 and 2 by Ki descending and give the first. Reply with the label of the item you choose.
1

a: CC(=O)N[C@@H](CO)C(=O)N[C@@H](CCCCN)C(=O)N[C@@H](CC(C)C)C(=O)N[C@@H](CCCNC(=N)N)C(=O)c1nc2ccc(C(=O)O)cc2s1 [Compound 7118, Ac-SKLR(SEQ ID NO: 10)-Kbt-COOH]
b: CC(C)C[C@H](NC(=O)[C@@H](N)CCCNC(=N)N)C(=O)N[C@@H](CCCNC(=N)N)C(=O)c1nc2ccc(C(=O)N[C@H](C(N)=O)C(C)C)cc2s1 [Compound 7180, H-RLR-kbt V amide]
Determine, for a and b , which has the greater value of Ki. Selection: enter the item's label.
a
(a: 1250 nM, b: 18 nM)

The values you see were collected from patent US11130780B2.
